- measured-target: hCB1R (Homo sapiens, UniProt P21554)
- Construct: host or cells: CHO
- Sequence (P21554 whole entry): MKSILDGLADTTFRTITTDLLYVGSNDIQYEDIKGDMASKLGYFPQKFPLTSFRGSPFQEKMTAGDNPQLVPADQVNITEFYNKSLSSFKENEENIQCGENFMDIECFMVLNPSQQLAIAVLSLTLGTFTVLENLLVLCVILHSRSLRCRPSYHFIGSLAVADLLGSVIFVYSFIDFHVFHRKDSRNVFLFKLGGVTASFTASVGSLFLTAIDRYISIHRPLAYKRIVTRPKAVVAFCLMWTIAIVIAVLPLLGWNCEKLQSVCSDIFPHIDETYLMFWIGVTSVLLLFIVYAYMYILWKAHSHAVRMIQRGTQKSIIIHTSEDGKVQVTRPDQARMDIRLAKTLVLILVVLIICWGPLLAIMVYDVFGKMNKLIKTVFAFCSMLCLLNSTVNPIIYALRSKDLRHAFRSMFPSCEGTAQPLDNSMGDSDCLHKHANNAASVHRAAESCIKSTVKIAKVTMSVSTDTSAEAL
- protocol: cell-based
- Format: cell-based
observation-type: Emax ± SEM β-AR recruitment hCB1R

{"columns": ["compound", "observation-type", "observed-measurement"],
 "data": [
  ["Cc1ccc2c(c1)Cc1c(C(=O)NN3CCCCC3)nn(-c3ccc(Cl)cc3Cl)c1-2", "Emax ± SEM β-AR recruitment hCB1R", -83],
  ["CCCC(C)(C)c1ccc2c(c1)OC(C)(C)[C@@H]1CC=C(C)C[C@@H]21", "Emax ± SEM β-AR recruitment hCB1R", 40],
  ["CCCCCCC(C)(C)c1cc(OC)c(C2=C[C@H]3CC[C@]2(CO)C3(C)C)c(OC)c1", "Emax ± SEM β-AR recruitment hCB1R", -97],
  ["CN1CCCC[C@H]1Cn1cc(C(=O)c2cc([N+](=O)[O-])ccc2I)c2ccccc21 [(S)-AM1241]", "Emax ± SEM β-AR recruitment hCB1R", 2],
  ["CN1CCCC[C@@H]1Cn1cc(C(=O)c2cc([N+](=O)[O-])ccc2I)c2ccccc21 [(R)-AM1241]", "Emax ± SEM β-AR recruitment hCB1R", 26],
  ["CN1CCCCC1Cn1cc(C(=O)c2cc([N+](=O)[O-])ccc2I)c2ccccc21 (racemic) [(rac)-AM1241]", "Emax ± SEM β-AR recruitment hCB1R", 6]
]}

----------
- measured-target: UniProt:P47936
- Sequence (P47936 whole entry): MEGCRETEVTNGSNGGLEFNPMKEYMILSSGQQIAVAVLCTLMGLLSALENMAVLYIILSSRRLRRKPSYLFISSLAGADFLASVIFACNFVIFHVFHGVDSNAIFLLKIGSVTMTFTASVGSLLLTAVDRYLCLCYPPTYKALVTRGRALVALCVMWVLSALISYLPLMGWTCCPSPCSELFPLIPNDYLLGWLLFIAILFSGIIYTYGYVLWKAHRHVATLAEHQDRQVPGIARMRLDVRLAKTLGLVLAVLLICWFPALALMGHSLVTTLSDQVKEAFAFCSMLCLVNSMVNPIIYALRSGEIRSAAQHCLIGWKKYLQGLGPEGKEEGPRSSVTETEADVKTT
- protocol: biochemical
- Assay type: biochemical
- Design: from tissue; host or cells: spleen of male C57BL/6J mice
- experimental-context: mouse spleen
A collection of molecules and their measured pEC50 ± SEM cAMP mCB2R

{"columns": ["molecule", "measured-target", "pEC50 ± SEM cAMP mCB2R"],
 "data": [
  ["Cc1c(C(=O)c2cccc3ccccc23)c2cccc3c2n1[C@H](CN1CCOCC1)CO3 [WIN55212-2]", "UniProt:P47936", 8.37],
  ["CN1CCCC[C@@H]1Cn1cc(C(=O)c2cc([N+](=O)[O-])ccc2I)c2ccccc21 [(R)-AM1241]", "UniProt:P47936", 6.17],
  ["CCCCCCC(C)(C)c1cc(OC)c(C2=C[C@H]3CC[C@]2(CO)C3(C)C)c(OC)c1 [HU910]", "UniProt:P47936", 8.98],
  ["Cc1ccc2c(c1)Cc1c(C(=O)NN3CCCCC3)nn(-c3ccc(Cl)cc3Cl)c1-2 [Gp-1a]", "UniProt:P47936", 7.25],
  ["CN1CCCC[C@H]1Cn1cc(C(=O)c2cc([N+](=O)[O-])ccc2I)c2ccccc21 [(S)-AM1241]", "UniProt:P47936", 7.6],
  ["CCCn1c(C)c(C(=O)c2cccc3ccccc23)c2ccccc21 [JWH015]", "UniProt:P47936", 7.64],
  ["COc1ccc(C(=O)c2c(C)n(CCN3CCOCC3)c3cc(I)ccc23)cc1 [AM630]", "UniProt:P47936", 7.93],
  ["CN1CCCCC1Cn1cc(C(=O)c2cc([N+](=O)[O-])ccc2I)c2ccccc21 (racemic) [(rac)-AM1241]", "UniProt:P47936", 7.03],
  ["CCCC(C)(C)c1ccc2c(c1)OC(C)(C)[C@@H]1CC=C(C)C[C@@H]21 [JWH133]", "UniProt:P47936", 7.75]
]}

----------
- measured-target: hCB2R (Homo sapiens)
- Sequence (P34972 whole entry): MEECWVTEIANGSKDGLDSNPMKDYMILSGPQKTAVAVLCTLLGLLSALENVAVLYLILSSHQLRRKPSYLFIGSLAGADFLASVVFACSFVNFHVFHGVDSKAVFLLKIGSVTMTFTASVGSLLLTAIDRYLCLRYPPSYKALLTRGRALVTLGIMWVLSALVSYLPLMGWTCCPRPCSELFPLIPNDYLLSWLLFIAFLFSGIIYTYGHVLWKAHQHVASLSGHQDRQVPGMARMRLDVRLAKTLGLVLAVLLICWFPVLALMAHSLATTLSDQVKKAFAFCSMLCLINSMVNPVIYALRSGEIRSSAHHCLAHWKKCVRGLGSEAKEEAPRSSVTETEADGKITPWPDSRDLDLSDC
- Design: expressed in transfected cells; host or cells: Flp-In-293 (Invitrogen #R750-07), pcDNA5/FRT
- experimental-context: hCB2R

{"columns": ["compound", "GIRK-GTPγS ΔΔlogR"],
 "data": [
  ["CN1CCCC[C@H]1Cn1cc(C(=O)c2cc([N+](=O)[O-])ccc2I)c2ccccc21 [(S)-AM1241]", -0.79],
  ["CN1CCCC[C@@H]1Cn1cc(C(=O)c2cc([N+](=O)[O-])ccc2I)c2ccccc21 [(R)-AM1241]", -1.39],
  ["CCCCCCC(C)(C)c1cc(OC)c(C2=C[C@H]3CC[C@]2(CO)C3(C)C)c(OC)c1 [HU910]", -0.51],
  ["CCCCC/C=C\\C/C=C\\C/C=C\\C/C=C\\CCCC(=O)NCCO [Anandamide, N-arachidonoylethanolamine]", 0.41],
  ["CCCCC/C=C\\C/C=C\\C/C=C\\C/C=C\\CCCC(=O)OC(CO)CO [2-AG, 2-arachidonoyl glycerol]", 2.19],
  ["CCCCCCC(C)(C)c1cc(OC)c([C@@H]2C=C(CO)[C@@H]3C[C@H]2C3(C)C)c(OC)c1 [HU308]", -0.26],
  ["CN1CCCCC1Cn1cc(C(=O)c2cc([N+](=O)[O-])ccc2I)c2ccccc21 (racemic) [(rac)-AM1241]", 0.03]
]}

----------
- measured-target: GR (h) (Homo sapiens, UniProt P04150)
- Construct: CEREP (contract assay)
- Sequence (P04150 whole entry): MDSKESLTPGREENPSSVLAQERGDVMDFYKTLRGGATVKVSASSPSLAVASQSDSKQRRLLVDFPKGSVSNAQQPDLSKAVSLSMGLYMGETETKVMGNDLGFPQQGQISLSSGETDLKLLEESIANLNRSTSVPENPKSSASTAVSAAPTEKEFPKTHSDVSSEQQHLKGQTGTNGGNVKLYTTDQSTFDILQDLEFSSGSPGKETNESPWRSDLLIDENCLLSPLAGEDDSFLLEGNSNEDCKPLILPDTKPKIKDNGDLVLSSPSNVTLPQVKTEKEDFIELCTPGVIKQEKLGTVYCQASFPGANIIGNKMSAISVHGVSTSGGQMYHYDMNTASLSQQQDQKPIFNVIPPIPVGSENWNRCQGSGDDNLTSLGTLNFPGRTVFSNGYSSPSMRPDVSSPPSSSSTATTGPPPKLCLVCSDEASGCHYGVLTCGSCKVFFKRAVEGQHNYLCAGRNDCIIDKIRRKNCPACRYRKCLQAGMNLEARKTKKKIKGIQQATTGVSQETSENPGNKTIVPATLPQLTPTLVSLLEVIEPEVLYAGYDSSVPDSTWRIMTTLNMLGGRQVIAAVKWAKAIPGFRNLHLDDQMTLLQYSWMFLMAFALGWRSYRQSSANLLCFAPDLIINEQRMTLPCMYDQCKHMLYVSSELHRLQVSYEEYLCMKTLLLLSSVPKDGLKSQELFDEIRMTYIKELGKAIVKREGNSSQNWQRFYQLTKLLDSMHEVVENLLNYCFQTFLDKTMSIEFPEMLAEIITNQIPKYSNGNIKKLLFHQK
- protocol: CEREP panel
- Assay type: binding
- experimental-context: 10 µM
observation-type: % inhibition GR (h) (%)

{"columns": ["compound", "observed-measurement"],
 "data": [
  ["CN1CCCC[C@H]1Cn1cc(C(=O)c2cc([N+](=O)[O-])ccc2I)c2ccccc21 [(S)-AM1241]", 10],
  ["CCCn1c(C)c(C(=O)c2cccc3ccccc23)c2ccccc21", 36],
  ["Cc1c(C(=O)NN2CCCCC2)nn(-c2ccc(Cl)cc2Cl)c1-c1ccc(I)cc1", 84],
  ["CCCCCCC(C)(C)c1ccc([C@@H]2C[C@H](O)CC[C@H]2CCCO)c(O)c1", 94]
]}

----------
- measured-target: hCB2R (Homo sapiens)
- protocol: cell-based
- Type: cell-based
- Set-up: expressed in transfected cells; host or cells: Flp-In-293 (Invitrogen #R750-07), pcDNA5/FRT
A collection of compounds and their measured pEC50 ± SEM pERK hCB2R
observation-type: pEC50 ± SEM pERK hCB2R

{"columns": ["compound", "measured-target", "observed-measurement"],
 "data": [
  ["COc1ccc(C(=O)c2c(C)n(CCN3CCOCC3)c3cc(I)ccc23)cc1", "hCB2R (Homo sapiens)", 5.09],
  ["CN1CCCCC1Cn1cc(C(=O)c2cc([N+](=O)[O-])ccc2I)c2ccccc21 (racemic) [(rac)-AM1241]", "hCB2R (Homo sapiens)", 7.6],
  ["CN1CCCC[C@@H]1Cn1cc(C(=O)c2cc([N+](=O)[O-])ccc2I)c2ccccc21 [(R)-AM1241]", "hCB2R (Homo sapiens)", 7.84],
  ["CN1CCCC[C@H]1Cn1cc(C(=O)c2cc([N+](=O)[O-])ccc2I)c2ccccc21 [(S)-AM1241]", "hCB2R (Homo sapiens)", 6.92],
  ["CCCC(C)(C)c1ccc2c(c1)OC(C)(C)[C@@H]1CC=C(C)C[C@@H]21", "hCB2R (Homo sapiens)", 6.19]
]}

----------
A collection of compounds and their measured MAGL % inhibition at 10 µM ± SD
- measured-target: MAGL (Homo sapiens)
- Construct: expressed in transfected cells; host or cells: HEK293T (transient), membrane preparation
- Sequence (Q99685 whole entry, species assumed): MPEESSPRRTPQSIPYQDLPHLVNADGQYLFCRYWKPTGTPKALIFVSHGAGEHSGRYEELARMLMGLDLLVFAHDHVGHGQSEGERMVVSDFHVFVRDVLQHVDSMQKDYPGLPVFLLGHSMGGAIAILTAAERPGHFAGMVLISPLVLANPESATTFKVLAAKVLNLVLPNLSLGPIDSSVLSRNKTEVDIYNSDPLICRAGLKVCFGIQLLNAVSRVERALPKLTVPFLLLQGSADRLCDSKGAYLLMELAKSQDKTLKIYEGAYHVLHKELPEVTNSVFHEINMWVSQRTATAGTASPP
- protocol: Biochemical MAGL activity assay
- experimental-context: 10 µM
observation-type: MAGL % inhibition at 10 µM ± SD

{"columns": ["compound", "observed-measurement"],
 "data": [
  ["CN1CCCC[C@@H]1Cn1cc(C(=O)c2cc([N+](=O)[O-])ccc2I)c2ccccc21 [(R)-AM1241]", "-2 ± 18%"],
  ["CN1CCCCC1Cn1cc(C(=O)c2cc([N+](=O)[O-])ccc2I)c2ccccc21 (racemic) [(rac)-AM1241]", "-2 ± 17%"],
  ["Cc1c(C(=O)c2cccc3ccccc23)c2cccc3c2n1[C@H](CN1CCOCC1)CO3 [WIN55212-2]", "3 ± 18%"],
  ["CN1CCCC[C@H]1Cn1cc(C(=O)c2cc([N+](=O)[O-])ccc2I)c2ccccc21 [(S)-AM1241]", "-4 ± 18%"],
  ["Cc1ccc2c(c1)Cc1c(C(=O)NN3CCCCC3)nn(-c3ccc(Cl)cc3Cl)c1-2 [Gp-1a]", "-1 ± 15%"],
  ["Cc1c(C(=O)NN2CCCCC2)nn(-c2ccc(Cl)cc2Cl)c1-c1ccc(I)cc1 [AM251]", "0 ± 16%"],
  ["CCCn1c(C)c(C(=O)c2cccc3ccccc23)c2ccccc21 [JWH015]", "0 ± 17%"],
  ["CCCCCc1cc(O)c2c(c1)OC(C)(C)[C@@H]1CCC(C)=C[C@@H]21 [Δ9-THC, Δ^9-tetrahydrocannabinol]", "7 ± 17%"],
  ["CCCC(C)(C)c1ccc2c(c1)OC(C)(C)[C@@H]1CC=C(C)C[C@@H]21 [JWH133]", "-20 ± 5%"],
  ["CCCCCCC(C)(C)c1cc(OC)c(C2=C[C@H]3CC[C@]2(CO)C3(C)C)c(OC)c1 [HU910]", "20 ± 12%"],
  ["COc1ccc(C(=O)c2c(C)n(CCN3CCOCC3)c3cc(I)ccc23)cc1 [AM630]", "4 ± 16%"]
]}
